Recorded below: MIC, system Escherichia coli.

// worked examples, MIC included
CC(C)C[C@H](NC(=O)[C@H](CCCCN)NC(=O)[C@H](Cc1ccccc1)NC(=O)[C@@H](NC(=O)[C@H](CCCCN)NC(=O)CNC(=O)[C@H](CC(C)C)NC(=O)[C@@H](N)Cc1ccccc1)C(C)C)C(=O)N[C@@H](C)C(=O)N[C@@H](CO)C(=O)N[C@@H](CCCCN)C(=O)N[C@H](C(=O)N[C@@H](Cc1ccccc1)C(=O)N[C@@H](CCCCN)C(=O)N[C@@H](C)C(=O)N[C@H](C(=O)N[C@@H](Cc1ccccc1)C(=O)NCC(=O)N[C@@H](CCCCN)C(=O)N[C@H](C(=O)O)C(C)C)C(C)C)C(C)C    7.23 µM
CC[C@H](C)[C@H](N)C(=O)N[C@@H](CC(N)=O)C(=O)N[C@@H](Cc1ccccc1)C(=O)N[C@@H](CC(C)C)C(=O)N[C@@H](CCCCN)C(=O)N[C@@H](CC(C)C)C(=O)NCC(=O)N[C@@H](CCCCN)C(=O)N[C@@H](CCCCN)C(=O)N[C@H](C(=O)N[C@@H](CC(C)C)C(=O)NCC(=O)N[C@@H](C)C(=O)N[C@@H](CC(C)C)C(N)=O)[C@@H](C)CC    > 100 µM
CC[C@H](C)[C@H](NC(=O)[C@H](CC(C)C)NC(=O)[C@H](CO)NC(=O)[C@@H](N)CCCN=C(N)N)C(=O)N[C@H](C(=O)N[C@@H](Cc1cnc[nH]1)C(=O)N[C@@H](CCC(N)=O)C(=O)N[C@@H](CCCN=C(N)N)C(=O)N[C@@H](CC(C)C)C(=O)N[C@@H](Cc1ccccc1)C(N)=O)C(C)C    > 315 µM
CC(C)C[C@H](NC(=O)[C@H](Cc1ccccc1)NC(=O)[C@@H]1CCCN1C(=O)[C@H](Cc1ccccc1)NC(=O)[C@@H](NC(=O)[C@H](Cc1ccccc1)NC(=O)[C@H](CC(C)C)NC(=O)[C@@H](NC(=O)[C@H](CCCCN)NC(=O)[C@@H](NC(=O)[C@H](CCCCN)NC(=O)[C@H](CCCCN)NC(=O)[C@H](C)NC(=O)CNC(=O)[C@H](C)NC(=O)[C@@H](NC(=O)[C@H](CO)NC(=O)[C@@H](NC(=O)CN)C(C)C)C(C)C)C(C)C)C(C)C)C(C)C)C(=O)N[C@@H](Cc1ccccc1)C(=O)O    > 119 µM
CC[C@H](C)[C@H](NC(=O)[C@H](CCCCN)NC(=O)[C@@H](N)Cc1c[nH]c2ccccc12)C(=O)N[C@H](C(=O)N[C@@H](Cc1ccccc1)C(=O)N[C@@H](Cc1c[nH]c2ccccc12)C(=O)N[C@@H](Cc1c[nH]c2ccccc12)C(=O)N[C@@H](CCCN=C(N)N)C(=O)N[C@@H](CCCN=C(N)N)C(N)=O)C(C)C    1.45 µM

Now for a further molecule.
API: value(readout=MIC, system=Escherichia coli) for record CC[C@H](C)[C@H](NC(=O)[C@@H](NC(=O)CNC(=O)[C@H](C)NC(=O)[C@@H](NC(=O)[C@H](CCCCN)NC(=O)[C@H](CCCCN)NC(=O)[C@H](CC(C)C)NC(=O)[C@H](Cc1ccccc1)NC(=O)[C@H](CC(=O)O)NC(=O)[C@@H](NC(=O)[C@H](Cc1ccccc1)NC(=O)CN)C(C)C)C(C)C)[C@@H](C)O)C(=O)N[C@@H](C)C(=O)N[C@@H](CC(N)=O)C(=O)N[C@H](C(=O)N[C@H](C(=O)N[C@H](C(N)=O)[C@@H](C)O)C(C)C)C(C)C
> 53.2 µM
